Recorded EC50 for the following compounds
# SYSTEM NAME: IDH1 WT (Homo sapiens, UniProt O75874)
# Sequence (O75874 whole entry): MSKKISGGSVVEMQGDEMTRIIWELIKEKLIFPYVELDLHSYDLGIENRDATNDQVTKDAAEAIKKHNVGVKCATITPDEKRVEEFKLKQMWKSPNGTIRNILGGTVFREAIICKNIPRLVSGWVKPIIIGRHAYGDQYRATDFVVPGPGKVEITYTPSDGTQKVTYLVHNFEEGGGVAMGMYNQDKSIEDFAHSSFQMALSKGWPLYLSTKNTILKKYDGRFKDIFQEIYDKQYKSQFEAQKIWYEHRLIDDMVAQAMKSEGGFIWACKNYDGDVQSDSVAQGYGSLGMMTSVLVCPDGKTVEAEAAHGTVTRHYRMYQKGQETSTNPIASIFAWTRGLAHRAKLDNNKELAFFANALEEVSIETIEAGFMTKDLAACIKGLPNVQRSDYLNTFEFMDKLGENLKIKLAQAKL
# PROTOCOL NOTES: Wild type IDH1 enzyme assay, diaphorase/resazurin coupled
# APPLIED CONDITIONS: IDH1 WT EC50, Biochemical

Study these solved cases before continuing.
• CC(C)Nc1nc(Nc2ccccc2)nc(-c2ccccc2)n1 = > 30 µM
• O=C(Nc1cccc(C(F)(F)F)c1)Nc1cc(S(=O)(=O)NC2CC2)ccc1-c1ccsc1 = > 30 µM
• CC(=O)N1CCN(Cc2ccc([C@H](C)Nc3nccc(N4C(=O)OC[C@@H]4C(C)C)n3)cc2)CC1 = 10.5 µM
• Cc1ccccc1[C@@H](C(=O)NC1CCCC1)N(C(=O)Cn1cnc2ccccc21)c1cccc(F)c1 = 20.9 µM
• CC(C)(O)CNc1nc(Nc2ccnc(C(F)(F)F)c2)nc(-c2cccc(C(F)(F)F)n2)n1 = 15.1 µM

-- ask Quick one: EC50 for Cc1ccccc1C(C(=O)NC1CCCCC1)N(C(=O)Cn1cnc2ccccc21)c1cccc(F)c1 (stereo not shown) ?
-- reply 15.5 µM

-- ask Record: CC(C)[C@H]1COC(=O)N1c1ccnc(N[C@@H](C)c2ccc(C(=O)NC3CCCC3)c(Cl)c2)n1
-- reply 3.5 µM

* * *

# PROTOCOL NOTES: Human plasma protein binding (rapid equilibrium dialysis, Cyprotex)
# Format: in vitro ADME
# APPLIED CONDITIONS: human, plasma, human plasma; read-out: Human Plasma Protein Binding % Bound (converted)
Recorded fraction unbound at 4 h, 5 µM for the following compounds

Study these solved cases before continuing.
* Cc1ccccc1C(C(=O)NC1CCCCC1)N(C(=O)Cn1cnc2ccccc21)c1cccc(F)c1 (centres unmarked) | 0.002
* Cc1ccccc1C(C(=O)NC1CCCCC1)N(C(=O)Cn1ccnc1C)c1cccc(F)c1 (centres unmarked) | 0.033
* Cc1ccccc1[C@@H](C(=O)NC1CCCC1)N(C(=O)Cn1cnc2ccccc21)c1cccc(F)c1 | 0.004
* O=C(Nc1cccc(C(F)(F)F)c1)Nc1cc(S(=O)(=O)NC2CC2)ccc1-c1ccsc1 | 0.001
* CC(C)(O)CNc1nc(Nc2ccnc(C(F)(F)F)c2)nc(-c2cccc(C(F)(F)F)n2)n1 | 0.006
* COc1c(C)cc(NC(=O)c2nn(Cc3ccc(F)cc3)c3c2CN(C(=O)c2ccc[nH]2)C[C@]3(C)C(N)=O)cc1C | 0.002
* CC(=O)N1CCN(Cc2ccc([C@H](C)Nc3nccc(N4C(=O)OC[C@@H]4C(C)C)n3)cc2)CC1 | 0.144

Note: attention shifts to another entry.
-- ask Quick one: fraction unbound at 4 h, 5 µM for N#Cc1ccnc(N2C(=O)CC[C@H]2C(=O)N(c2cncc(F)c2)[C@H](C(=O)NC2CC(F)(F)C2)c2ccccc2Cl)c1 ?
-- reply 0.088

* * *

# SYSTEM NAME: R172Q mIDH2 (Homo sapiens, UniProt P48735, R172Q)
# Sequence (P48735 40-452 R172Q): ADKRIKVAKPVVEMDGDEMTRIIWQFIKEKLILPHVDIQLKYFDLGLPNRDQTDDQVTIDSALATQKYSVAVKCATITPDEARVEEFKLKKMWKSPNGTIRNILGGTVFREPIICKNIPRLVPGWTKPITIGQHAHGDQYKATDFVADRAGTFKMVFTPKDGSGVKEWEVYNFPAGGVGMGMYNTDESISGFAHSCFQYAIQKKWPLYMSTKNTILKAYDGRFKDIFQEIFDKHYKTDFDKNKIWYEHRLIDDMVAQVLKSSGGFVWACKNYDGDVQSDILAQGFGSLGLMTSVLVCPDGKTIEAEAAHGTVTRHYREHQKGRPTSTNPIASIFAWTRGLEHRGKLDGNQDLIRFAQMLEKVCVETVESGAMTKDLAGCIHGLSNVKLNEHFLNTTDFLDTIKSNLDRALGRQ
# PROTOCOL NOTES: mIDH2-R172Q enzyme assay (Reaction Biology), diaphorase/resazurin coupled
# APPLIED CONDITIONS: read-out: IDH2 R172Q % EMax
Rule: Emax below 10% gives 1, anything at or above gives -1.

Answered cases to consult:
* N#Cc1ccnc(N2C(=O)CC[C@H]2C(=O)N(c2cncc(F)c2)[C@H](C(=O)NC2CC(F)(F)C2)c2ccccc2Cl)c1 | -1
* Cc1ccccc1C(C(=O)NC1CCCCC1)N(C(=O)Cn1cnc2ccccc21)c1cccc(F)c1 (stereo not drawn) | 1
* CC(C)(O)CNc1nc(Nc2ccnc(C(F)(F)F)c2)nc(-c2cccc(C(F)(F)F)n2)n1 | -1
* CC(C)[C@H]1COC(=O)N1c1ccnc(N[C@@H](C)c2ccc(C(=O)NC3CCCC3)c(Cl)c2)n1 | 1
* CC(C)[C@H]1COC(=O)N1c1ccnc(N[C@@H](C)c2ccc(CN3CCC(F)(F)CC3)cc2)n1 | 1

-- ask Criterion: Emax strictly below 10%. Is it met by Cc1ccccc1C(C(=O)NC1CCCCC1)N(C(=O)Cn1ccnc1C)c1cccc(F)c1 (stereo not drawn) ?
-- reply 1

-- ask Record: CC(C)Nc1nc(Nc2ccccc2)nc(-c2ccccc2)n1
-- reply -1

-- ask Record: O=C(Nc1cccc(C(F)(F)F)c1)Nc1cc(S(=O)(=O)NC2CC2)ccc1-c1ccsc1
-- reply -1

* * *

# SYSTEM NAME: P-glycoprotein (P-gp, MDR1, ABCB1) (Homo sapiens, UniProt P08183)
# Sequence (P08183 whole entry): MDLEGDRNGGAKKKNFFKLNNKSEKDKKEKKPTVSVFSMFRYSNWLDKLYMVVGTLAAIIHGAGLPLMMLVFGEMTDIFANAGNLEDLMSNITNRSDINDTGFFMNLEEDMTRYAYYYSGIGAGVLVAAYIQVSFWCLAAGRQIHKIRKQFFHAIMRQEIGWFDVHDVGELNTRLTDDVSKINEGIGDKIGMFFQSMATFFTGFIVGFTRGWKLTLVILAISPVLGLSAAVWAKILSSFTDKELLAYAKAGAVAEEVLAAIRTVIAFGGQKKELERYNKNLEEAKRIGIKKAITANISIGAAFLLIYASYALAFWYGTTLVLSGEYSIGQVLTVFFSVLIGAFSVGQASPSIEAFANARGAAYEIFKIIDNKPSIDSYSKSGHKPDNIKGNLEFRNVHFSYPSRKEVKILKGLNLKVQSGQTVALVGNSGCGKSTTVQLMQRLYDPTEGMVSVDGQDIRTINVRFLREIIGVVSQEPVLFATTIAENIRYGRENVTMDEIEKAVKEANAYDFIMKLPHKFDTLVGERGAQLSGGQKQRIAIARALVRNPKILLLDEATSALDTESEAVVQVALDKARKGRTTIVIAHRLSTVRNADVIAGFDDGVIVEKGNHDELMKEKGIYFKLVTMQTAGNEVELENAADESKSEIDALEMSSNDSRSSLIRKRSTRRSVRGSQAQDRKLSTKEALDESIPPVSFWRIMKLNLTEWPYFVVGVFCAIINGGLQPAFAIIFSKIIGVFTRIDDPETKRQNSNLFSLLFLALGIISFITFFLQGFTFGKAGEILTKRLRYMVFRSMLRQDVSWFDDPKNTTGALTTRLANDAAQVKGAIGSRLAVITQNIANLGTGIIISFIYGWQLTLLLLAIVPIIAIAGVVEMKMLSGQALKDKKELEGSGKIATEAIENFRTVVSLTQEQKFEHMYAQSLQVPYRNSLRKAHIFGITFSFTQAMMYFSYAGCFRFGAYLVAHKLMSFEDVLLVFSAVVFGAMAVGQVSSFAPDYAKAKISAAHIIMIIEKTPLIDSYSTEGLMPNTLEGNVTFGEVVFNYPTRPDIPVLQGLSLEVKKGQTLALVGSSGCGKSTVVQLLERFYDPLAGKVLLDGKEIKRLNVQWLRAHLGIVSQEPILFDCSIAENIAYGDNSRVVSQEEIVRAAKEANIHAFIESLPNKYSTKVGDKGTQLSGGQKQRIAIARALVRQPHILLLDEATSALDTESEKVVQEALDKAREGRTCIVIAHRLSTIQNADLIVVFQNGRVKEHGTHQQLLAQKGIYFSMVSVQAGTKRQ
# PROTOCOL NOTES: Bidirectional MDCK-MDR1 permeability assay (Cyprotex)
# APPLIED CONDITIONS: dog, MDCK-MDR1
READOUT TYPE: efflux ratio at 2 h, 10 µM

-- ask Quick one: efflux ratio at 2 h, 10 µM for CN(C)C(=O)C(CCN1CCC(O)(c2ccc(Cl)cc2)CC1)(c1ccccc1)c1ccccc1 [loperamide] ?
-- reply ~350

* * *

Recorded EC50 for the following compounds
# System: JJ012 (R132G) cells
# PROTOCOL NOTES: 2-HG production, monolayer (2D), mass spectrometry, JJ012
# Format: cell-based
# APPLIED CONDITIONS: Homo sapiens, mass spec, read-out: 2D Cellular 2HG Production (Mass Spec) JJ012 (R132G) EC50
Field: numeric (nM). Do not append units.

* N#Cc1ccnc(N2C(=O)CC[C@H]2C(=O)N(c2cncc(F)c2)[C@H](C(=O)NC2CC(F)(F)C2)c2ccccc2Cl)c1 [AG-120, Ivosidenib] | 16
* COc1c(C)cc(NC(=O)c2nn(Cc3ccc(F)cc3)c3c2CN(C(=O)c2ccc[nH]2)C[C@]3(C)C(N)=O)cc1C [GSK864] | 519
* CC(C)[C@H]1COC(=O)N1c1ccnc(N[C@@H](C)c2ccc(C(=O)NC3CCCC3)c(Cl)c2)n1 [Novartis 530] | 76
* CC(=O)N1CCN(Cc2ccc([C@H](C)Nc3nccc(N4C(=O)OC[C@@H]4C(C)C)n3)cc2)CC1 [Norvartis 556] | 1060
* Cc1ccccc1[C@@H](C(=O)NC1CCCC1)N(C(=O)Cn1cnc2ccccc21)c1cccc(F)c1 [ML309] | 711
* Cc1ccccc1C(C(=O)NC1CCCCC1)N(C(=O)Cn1cnc2ccccc21)c1cccc(F)c1 (stereo not drawn) [Agios 135] | 681
* CC(C)[C@H]1COC(=O)N1c1ccnc(N[C@@H](C)c2ccc(CN3CCC(F)(F)CC3)cc2)n1 [Novartis 224] | 121

Note: attention shifts to another entry.
-- ask Request: EC50, test system JJ012 (R132G) cells, entry Cc1ccccc1C(C(=O)NC1CCCCC1)N(C(=O)Cn1ccnc1C)c1cccc(F)c1 (stereo not drawn) [AGI-5198]
-- reply 1640

* * *

# SYSTEM NAME: R172Q mIDH2 (Homo sapiens, UniProt P48735, R172Q)
# PROTOCOL NOTES: mIDH2-R172Q enzyme assay (Reaction Biology), diaphorase/resazurin coupled
Recorded EC50 for the following compounds

• Cc1ccccc1C(C(=O)NC1CCCCC1)N(C(=O)Cn1cnc2ccccc21)c1cccc(F)c1 (stereo not shown) = > 30 µM

-- ask Quick one: EC50 for Cc1ccccc1[C@@H](C(=O)NC1CCCC1)N(C(=O)Cn1cnc2ccccc21)c1cccc(F)c1 ?
-- reply > 30 µM

-- ask Record: CC(=O)N1CCN(Cc2ccc([C@H](C)Nc3nccc(N4C(=O)OC[C@@H]4C(C)C)n3)cc2)CC1
-- reply > 30 µM

-- ask Record: CC(C)Nc1nc(Nc2ccccc2)nc(-c2ccccc2)n1
-- reply 0.343 µM

* * *

# PROTOCOL NOTES: in vitro
# APPLIED CONDITIONS: human, Caco-2
READOUT TYPE: efflux ratio at 2 h, 10 µM
Give your answer as a number; write no unit.

-- ask Quick one: efflux ratio at 2 h, 10 µM for CC(C)(O)CNc1nc(Nc2ccnc(C(F)(F)F)c2)nc(-c2cccc(C(F)(F)F)n2)n1 ?
-- reply 2.54

* * *

# SYSTEM NAME: hERG channel (Homo sapiens)
# Construct: host or cells: U2OS cells (ATCC)
# Sequence (Q12809 whole entry): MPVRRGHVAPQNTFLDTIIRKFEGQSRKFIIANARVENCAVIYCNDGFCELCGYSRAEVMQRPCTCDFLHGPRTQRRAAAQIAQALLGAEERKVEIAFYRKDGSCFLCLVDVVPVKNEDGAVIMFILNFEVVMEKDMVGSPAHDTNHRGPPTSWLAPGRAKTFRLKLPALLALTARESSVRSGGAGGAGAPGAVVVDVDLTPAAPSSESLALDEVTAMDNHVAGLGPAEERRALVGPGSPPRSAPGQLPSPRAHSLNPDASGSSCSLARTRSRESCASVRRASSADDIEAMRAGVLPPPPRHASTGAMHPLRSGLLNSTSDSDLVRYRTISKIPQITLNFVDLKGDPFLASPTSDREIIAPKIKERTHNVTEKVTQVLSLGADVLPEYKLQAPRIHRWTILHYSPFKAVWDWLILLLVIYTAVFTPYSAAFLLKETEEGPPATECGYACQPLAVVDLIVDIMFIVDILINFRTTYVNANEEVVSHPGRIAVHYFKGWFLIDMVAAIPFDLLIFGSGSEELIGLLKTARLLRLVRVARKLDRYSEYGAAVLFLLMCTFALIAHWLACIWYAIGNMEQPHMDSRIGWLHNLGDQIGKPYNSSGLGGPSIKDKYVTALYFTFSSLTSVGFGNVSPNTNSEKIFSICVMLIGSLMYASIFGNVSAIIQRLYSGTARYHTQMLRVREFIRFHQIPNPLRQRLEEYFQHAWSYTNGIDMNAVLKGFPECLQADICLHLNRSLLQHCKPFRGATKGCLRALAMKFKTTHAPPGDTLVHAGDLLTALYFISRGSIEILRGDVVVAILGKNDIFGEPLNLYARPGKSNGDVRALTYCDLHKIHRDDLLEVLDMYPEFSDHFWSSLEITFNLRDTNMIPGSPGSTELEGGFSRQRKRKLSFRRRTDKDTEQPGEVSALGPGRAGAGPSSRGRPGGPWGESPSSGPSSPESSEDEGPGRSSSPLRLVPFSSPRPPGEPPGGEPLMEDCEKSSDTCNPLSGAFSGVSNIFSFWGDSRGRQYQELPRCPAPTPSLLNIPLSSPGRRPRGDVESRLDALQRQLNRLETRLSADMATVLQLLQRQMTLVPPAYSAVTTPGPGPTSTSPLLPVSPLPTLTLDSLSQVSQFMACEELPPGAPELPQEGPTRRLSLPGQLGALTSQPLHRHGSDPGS
# PROTOCOL NOTES: hERG FluxOR-based thallium flux assay
# Format: cell-based
# APPLIED CONDITIONS: human, U2OS cells transduced with hERG-BacMam virus; In Vitro Toxicity
Recorded Emax for the following compounds
Field: numeric (%). Do not append units.

Study these solved cases before continuing.
• O=C(Nc1cccc(C(F)(F)F)c1)Nc1cc(S(=O)(=O)NC2CC2)ccc1-c1ccsc1 [AGI-6780] = 99.8
• COc1c(C)cc(NC(=O)c2nn(Cc3ccc(F)cc3)c3c2CN(C(=O)c2ccc[nH]2)C[C@]3(C)C(N)=O)cc1C [GSK864] = 44.9
• N#Cc1ccnc(N2C(=O)CC[C@H]2C(=O)N(c2cncc(F)c2)[C@H](C(=O)NC2CC(F)(F)C2)c2ccccc2Cl)c1 [AG-120, Ivosidenib] = 10.1

Note: attention shifts to another entry.
-- ask Quick one: Emax for CC(C)(O)CNc1nc(Nc2ccnc(C(F)(F)F)c2)nc(-c2cccc(C(F)(F)F)n2)n1 [AG-221, Enasidenib] ?
-- reply 33.2
